- TESTED SYSTEM: Kinesin-like protein KIF11 (Homo sapiens)
- Sequence (P52732 whole entry): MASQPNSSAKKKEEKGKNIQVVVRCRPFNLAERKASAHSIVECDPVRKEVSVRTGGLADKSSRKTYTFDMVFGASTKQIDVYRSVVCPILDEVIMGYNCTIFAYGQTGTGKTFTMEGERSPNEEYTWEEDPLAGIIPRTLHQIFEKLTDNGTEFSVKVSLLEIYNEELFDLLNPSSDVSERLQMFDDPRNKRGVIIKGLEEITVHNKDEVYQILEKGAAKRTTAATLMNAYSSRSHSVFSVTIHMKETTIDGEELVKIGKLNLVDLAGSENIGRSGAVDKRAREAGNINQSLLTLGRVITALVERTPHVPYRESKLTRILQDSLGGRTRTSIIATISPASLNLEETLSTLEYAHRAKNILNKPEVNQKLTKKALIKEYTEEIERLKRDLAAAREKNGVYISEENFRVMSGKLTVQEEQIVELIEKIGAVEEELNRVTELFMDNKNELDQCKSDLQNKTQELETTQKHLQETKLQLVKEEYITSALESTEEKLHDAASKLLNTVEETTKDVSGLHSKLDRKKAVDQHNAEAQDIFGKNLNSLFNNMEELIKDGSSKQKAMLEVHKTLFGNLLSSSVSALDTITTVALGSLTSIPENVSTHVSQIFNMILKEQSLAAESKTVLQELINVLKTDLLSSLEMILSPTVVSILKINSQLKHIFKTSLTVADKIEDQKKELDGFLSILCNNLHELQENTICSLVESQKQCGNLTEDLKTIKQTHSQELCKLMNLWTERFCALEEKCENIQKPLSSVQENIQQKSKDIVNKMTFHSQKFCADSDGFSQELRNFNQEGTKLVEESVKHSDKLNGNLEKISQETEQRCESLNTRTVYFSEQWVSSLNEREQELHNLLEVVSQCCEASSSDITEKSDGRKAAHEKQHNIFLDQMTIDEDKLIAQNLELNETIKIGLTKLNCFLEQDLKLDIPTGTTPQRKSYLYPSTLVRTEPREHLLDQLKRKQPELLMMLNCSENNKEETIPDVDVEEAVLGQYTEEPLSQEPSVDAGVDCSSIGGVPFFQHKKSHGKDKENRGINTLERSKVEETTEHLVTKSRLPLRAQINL
- EXPERIMENTAL DETAILS: Inhibition of human Eg5 expressed in Escherichia coli assessed as microtubule-activated ATPase activity by spectrophotometry
Exercise: for every item that follows, state its recorded IC50.
Give your result in µM as a bare value.

Data point: Cc1ccc2[nH]c3c(c2c1)CCN(C(=O)c1ccc(N)cc1)C3c1cccc(O)c1 (racemic) ; IC50 = 0.05

Data point: Cc1ccc2[nH]c3c(c2c1)CCN(C)C3c1cccc(O)c1 (racemic) ; IC50 = 0.462

Data point: CCOC(=O)C1Cc2c([nH]c3ccccc23)C(c2cccc(O)c2)N1C(C)=O (racemic) ; IC50 = 0.724

Data point: CCC(=O)N1C(C(=O)O)Cc2c([nH]c3ccccc23)C1c1cccc(O)c1 (racemic) ; IC50 = 0.118
